# TGI per entry
test system: DLD-1 colon; assay: NCI tumour cell line growth inhibition, 48 h

molecule: COc1ccc2c(c1)[n+]([O-])c(C(N)=O)c(N)[n+]2[O-]
TGI: > 100 µM
--
molecule: CCCCCCCCCCCCNC(=S)OC
TGI: 28.9 µM
--
molecule: CCOC(=O)C1=C(C)N(NC(=O)Nc2ccccc2)C2(N)N(NC(=O)Nc3ccccc3)C(C)=C(C(=O)OCC)C12C(=O)OCC (centres undefined)
TGI: > 100 µM
--
molecule: O=C1c2ccccc2C(=O)c2c(/C=C\N3CCCCC3)ccnc21
TGI: 15.8 µM
--
molecule: CON(C)C(=O)C(Cc1ccccc1)NC(=O)OCc1ccccc1 (centres undefined)
TGI: > 100 µM
--
molecule: CC1(C)CC(c2c[nH]c3ccccc23)=CC2=Nc3ccccc3C21O (centres undefined)
TGI: > 100 µM
--
molecule: O=c1c2cccnc2ncn1CCN1CCCCC1
TGI: > 100 µM
--
molecule: [O-][Cl+3]([O-])([O-])[O-].[O]=[Ru]=[O].c1ccc(-c2ccccn2)nc1.c1ccc(-c2ccccn2)nc1
TGI: > 100 µM
--
molecule: CC1NC(=O)C(C)C(c2ccccc2)N(N=O)C1c1ccccc1 (centres undefined)
TGI: > 100 µM

###

test system: M14 melanoma; assay: NCI tumour cell line growth inhibition, 48 h
# TGI per entry
measurement type: TGI (µM)

compound: CNC(=O)NCCCC(NC(C)=O)C(=O)NCc1ccccc1 (stereo unspecified)
experimental target: M14 melanoma
limit sign: >
result number: 100
//
compound: COCOC1/C=C/CCCCC(=O)C(C)C#CC1 (stereo unspecified)
experimental target: M14 melanoma
limit sign: =
result number: 14.5
//
compound: CCNC(=O)C#Cc1ccc2c(C(=Nc3ccc(CN(C)C)cc3)c3ccccc3)c(O)[nH]c2c1
experimental target: M14 melanoma
limit sign: =
result number: 0.114
//
compound: Cc1ccc(S(=O)(=O)N2CC2CCCCC=O)cc1 (stereo unspecified)
experimental target: M14 melanoma
limit sign: >
result number: 100
//
compound: CCOC(=O)C(=[N+]=[N-])C(=O)CN1C(=O)c2ccccc2C1=O
experimental target: M14 melanoma
limit sign: >
result number: 100
//
compound: O=C1NC2(CCN(CCc3ccccc3)CC2)Oc2ccccc21
experimental target: M14 melanoma
limit sign: =
result number: 49.9

###

test system: OVCAR-4 ovarian; assay: NCI tumour cell line growth inhibition, 48 h; in the data active = GI50 below about 0.43 µM; inactive = the rest
Possible outcomes: label 1 (active), label 0 (inactive)

molecule: c1ccc(Nc2ncc(-c3ccccc3)o2)cc1
classification: label 0

molecule: CN1CCN(c2ccc(Nc3ncc(Cl)c(NC[C@@H]4CCCO4)n3)cc2)CC1
classification: label 0

molecule: CC(C)(C)[Si](C)(C)OC1[C@@H](O[Si](C)(C)C(C)(C)C)[C@@H](CNC(=O)NC(=O)C(F)(F)F)O[C@H]1n1cnc2c(NC(=O)Nc3ccccc3)ncnc21 (stereo not given in full)
classification: label 0

molecule: NC(=S)N/N=C\c1nccc2c(C(F)(F)F)cccc12
classification: label 1

molecule: Cc1nnc2ccnn2c1C
classification: label 0

###

system: M19-MEL melanoma; assay: NCI tumour cell line growth inhibition, 48 h

compound: O=C(CC1Sc2ccccc2NC1=O)Nc1ccccc1[N+](=O)[O-] (configuration not stated)
TGI: > 100 µM
//
compound: CN(C)C(=S)/N=c1\ssc(=S)n1C1CCCCC1
TGI: > 100 µM
//
compound: COc1ccc(C2Oc3cc(OC)c(OC)cc3C2CCl)cc1OC (configuration not stated)
TGI: > 100 µM
//
compound: O=C(NC1C=CCC2C(=O)N(c3ccccc3)C(=O)C12)OCc1ccccc1 (configuration not stated)
TGI: > 100 µM
//
compound: N#CCCC[Si]12OCCN(CCO1)CCO2
TGI: > 100 µM
//
compound: CCNC(=O)c1ccc(C)c(N=NN(C)C)c1
TGI: > 100 µM
//
compound: CCn1cnc2c(=S)nc(N)[nH]c21
TGI: > 100 µM
//
compound: Cc1ccc(S(=O)(=O)N2CCC2c2ccccc2)cc1 (configuration not stated)
TGI: > 100 µM
//
compound: O=C1C(Br)=C(Br)C(=O)c2ccc(=O)ccc21
TGI: 32.5 µM
//
compound: CN(C)CC1CCC/C1=N/OC(=O)c1ccccc1 (configuration not stated)
TGI: > 100 µM
//
compound: O=C1c2ccccc2C(=O)c2c(/C=C\N3CCCCC3)ccnc21
TGI: 0.563 µM
//
compound: COc1cc2c(cc1OC)C(Cl)C(c1ccc(F)cc1)=C2Cl (configuration not stated)
TGI: 38.7 µM

Value source: PubChem BioAssay (NCI)
